- TEST TARGET: purified recombinant HCMV polymerase from strain AD169 (UL54) (Human cytomegalovirus)
- Construct: made in house; host or cells: Sf21 insect cells (baculovirus)
- Sequence (P08546 whole entry): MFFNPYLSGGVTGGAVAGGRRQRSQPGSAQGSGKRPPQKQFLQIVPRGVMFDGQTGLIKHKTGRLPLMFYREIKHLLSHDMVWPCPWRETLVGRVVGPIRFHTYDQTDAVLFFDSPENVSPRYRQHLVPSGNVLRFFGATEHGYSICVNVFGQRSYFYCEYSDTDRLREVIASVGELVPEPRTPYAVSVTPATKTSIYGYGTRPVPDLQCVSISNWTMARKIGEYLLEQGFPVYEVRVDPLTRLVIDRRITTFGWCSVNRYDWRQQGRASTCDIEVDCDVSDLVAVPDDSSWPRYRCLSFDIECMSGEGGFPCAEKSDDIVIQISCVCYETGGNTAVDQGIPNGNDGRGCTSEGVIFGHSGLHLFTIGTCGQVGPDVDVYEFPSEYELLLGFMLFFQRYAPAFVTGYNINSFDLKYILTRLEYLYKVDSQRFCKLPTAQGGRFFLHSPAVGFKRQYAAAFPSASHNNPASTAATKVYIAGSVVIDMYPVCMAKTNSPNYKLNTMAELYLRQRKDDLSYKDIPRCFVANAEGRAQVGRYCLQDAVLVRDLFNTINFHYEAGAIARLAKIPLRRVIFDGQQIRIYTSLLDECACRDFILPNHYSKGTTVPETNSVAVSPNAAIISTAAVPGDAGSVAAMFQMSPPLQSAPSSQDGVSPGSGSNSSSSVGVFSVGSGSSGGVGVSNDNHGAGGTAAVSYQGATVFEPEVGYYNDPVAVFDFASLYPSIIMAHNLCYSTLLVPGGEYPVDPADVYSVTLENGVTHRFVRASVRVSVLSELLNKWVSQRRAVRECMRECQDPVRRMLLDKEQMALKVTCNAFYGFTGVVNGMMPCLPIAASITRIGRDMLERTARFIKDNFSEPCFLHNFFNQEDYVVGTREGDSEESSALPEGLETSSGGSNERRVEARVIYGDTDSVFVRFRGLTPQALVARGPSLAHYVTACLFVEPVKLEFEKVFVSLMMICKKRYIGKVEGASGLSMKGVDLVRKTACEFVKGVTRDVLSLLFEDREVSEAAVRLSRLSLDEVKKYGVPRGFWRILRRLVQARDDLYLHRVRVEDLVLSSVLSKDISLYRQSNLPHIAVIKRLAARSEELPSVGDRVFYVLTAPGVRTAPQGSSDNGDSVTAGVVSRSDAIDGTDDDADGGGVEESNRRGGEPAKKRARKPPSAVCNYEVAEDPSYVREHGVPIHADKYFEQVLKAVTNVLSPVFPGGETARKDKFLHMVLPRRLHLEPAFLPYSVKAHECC
- ASSAY: HCMV Polymerase LANCE TR-FRET Assay
- Type: biochemical
- EXPERIMENTAL CONDITIONS: 2 nM GST-UL54, 37° C. for 30 min; read-out: IC50 (nM) Example B
- Method: This non-radiometric assay determines the enzymatic activity of purified recombinant HCMV polymerase from strain AD169 (UL54) using a Digoxigenin-labeled oligonucleotide priming a heteropolymeric template. The enzymatic activity is determined by incorporating Biotin-dUTP in the nascent complementary strand. […] To perform the assay, 3 μL of the enzyme solution is added to columns 2-12 and 14-24. […] The signal is read on the Envision plate reader (Perkin-Elmer) or equivalent.
REPORTED ENDPOINT: IC50 (nM)

Recorded IC50, per entry:
MOLECULE | IC50 (nM)
Cc1c(Cn2ccnc2C)ccc2c1C(C)(C)CN2C(=O)[C@H]1CC(=O)N(c2cccc(C#N)c2)C1 | 480
CC1(C)CN(C(=O)[C@H]2CC(=O)N(c3cccc(Cl)c3)C2)c2ccc(CCn3ccnc3)cc21 | 200
CC(C)n1cnnc1CN(C)Cc1ccc2c(c1)CCN2C(=O)C1CC(=O)N(c2cccc(C#N)c2)C1 (centres unmarked) | 600

a: Cc1ncc(Cc2ccc3c(c2)C(C)(C)CN3C(=O)C2CC(=O)N(c3cccc(C#N)c3)C2)o1 (centres unmarked)
b: CC1(C)CN(C(=O)[C@H]2CC(=O)N(c3cccc(C#N)c3)C2)c2ccc(CCn3cncn3)cc21
c: CC1(C)CN(C(=O)[C@H]2CC(=O)N(c3cccc(C#N)c3)C2)c2ccc(Cc3cncnc3)cc21
d: CNc1ncc(CCc2ccc3c(c2)C(C)(C)CN3C(=O)[C@H]2CC(=O)N(c3cccc(C#N)c3)C2)cn1
Request: Hello, I need these entries ordered by IC50, highest reading first. Thanks! The response must list the labels following the requested ordering.
Result: a, c, d, b

P: Cn1cncc1Cc1ccc2c(c1)CCN2C(=O)[C@H]1CC(=O)N(c2cccc(C#N)c2)C1
Q: CC1(C)CN(C(=O)[C@H]2CC(=O)N(c3cccc(C#N)c3)C2)c2ccc(CNc3cncnc3)cc21
Request: Which is greater in IC50, the first item P or the second item Q ? Answer format: the label of the selected item.
Result: P
(P: 480 nM, Q: 86 nM)

P: CC1CN(C(=O)[C@H]2CC(=O)N(c3cccc(C#N)c3)C2)c2ccc(CCn3ccnc3)cc21 (single isomer, unassigned)
Q: CC1(C)CN(C(=O)[C@H]2CC(=O)N(c3cccc(C#N)c3)C2)c2ccc(Cc3cnoc3)cc21
Request: Form field 'greater IC50' accepts P or Q ; which applies? To answer, give the label that identifies your chosen option.
Result: Q
(Q: 260 nM, P: 100 nM)
